B1: EDARADD (parent)
chain: VEKVLRRWVDEEWPKRERGDPSRH

Variants of: B1
Experiment Summary: protein stability index of a GFP-peptide fusion (GPS, HEK-293T) (PSI 1-6); higher = more stable;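 further: lentivirally expressed fusions sorted by FACS into six bins by GFP to DsRed ratio, PSI derived from sequencing read proportions per bin multiplied by bin number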
Reported Conditions: c terminus: a fixed tail appended
Entries and their measured protein stability index follow.
I only need the number, thanks.

Solved entries (count: 4):
[
  {
    "Mutation Descriptor": "S22V",
    "Observed Value": 2.66
  },
  {
    "Mutation Descriptor": "R23L",
    "Observed Value": 2.66
  },
  {
    "Mutation Descriptor": "L5I",
    "Observed Value": 2.96
  },
  {
    "Mutation Descriptor": "E17G",
    "Observed Value": 3.32
  }
]

Per the record, `R7I` has protein stability index of 2.32

Per the record, `E17D` has protein stability index of 3.53

Per the record, `W13N` has protein stability index of 3.86
